- SYSTEM: Biotinylated human CD80 (hCD80-BT) (Homo sapiens, UniProt P33681)
- Construct: biotin (biotinylation)
- Sequence (P33681 35-242 limits assumed): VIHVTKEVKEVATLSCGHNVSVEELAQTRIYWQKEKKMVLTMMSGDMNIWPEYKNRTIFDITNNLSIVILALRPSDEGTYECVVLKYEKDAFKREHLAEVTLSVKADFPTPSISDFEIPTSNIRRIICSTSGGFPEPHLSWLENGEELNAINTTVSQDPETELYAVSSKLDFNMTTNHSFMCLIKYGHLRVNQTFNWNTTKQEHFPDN
- ASSAY NAME: BIAcore biomolecular interaction assay
- TEST CONTEXT: hCD80-BT immobilised on streptavidin-coated sensor chip; compound 1000 nM-0.05 nM
- Protocol: Biotinylated human CD80 (hCD80-BT) is a recombinant soluble form of a membrane bound receptor molecule (CD80) which binds to CD28 to initiate T cell activation. The interaction between CD80 and CD28 has been extensively investigated (Collins et al, 2002). […] BIAcore S51™ was run at a flow rate of 30 μl/min using running buffer. […] Data were recorded automatically and were analysed using BIAcore S51 Evaluation software.
TEST READOUT: pKd
// returns pKd (minus log10 of molar concentration), number only

For the compound shown here, O=C(N[C@H]1CN2CCC1CC2)c1ccc(-n2[nH]c3c(nnc4c(F)ccc(F)c43)c2=O)cc1 , give the reported pKd.
9.46
